species: Rattus norvegicus; test: DrugMatrix - Regimen: Daily Repeat; format: toxicity, organism-based, Sprague-Dawley; parameters: regimen Daily Repeat, gender Male, age 6-8 weeks; conditions: in vivo, po, 0 mg/kg, 72 h, tissue Blood, route oral GAVAGE, dose level Control, time 3 day, vehicle .5 % CMC
HEMOGLOBIN for assorted compounds
quantity measured: HEMOGLOBIN (G/DL)

>>> observed_result("Cc1ccc(/N=C/N(C)/C=N/c2ccc(C)cc2C)c(C)c1")
14.22
>>> observed_result("ClC(Cl)Br")
12.02
>>> observed_result("C1CCC(C(CC2CCCCN2)C2CCCCC2)CC1 (stereo not given)")
13.48
>>> observed_result("CCCCc1oc2ccccc2c1C(=O)c1cc(I)c(OCCN(CC)CC)c(I)c1")
14.58
>>> observed_result("N=C(N)NCCN1CCCCCCC1")
14.82
>>> observed_result("NC1=NC(=O)C(c2ccccc2)O1 (stereo not given)")
14.26
>>> observed_result("Cc1nc2n(c(=O)c1CCN1CCC(c3noc4cc(F)ccc34)CC1)CCCC2")
14.58
>>> observed_result("CC1CC(OC(=O)C(O)c2ccccc2)CC(C)(C)C1 (stereo not given) [CYCLANDELATE]")
14.82
>>> observed_result("CCCN1C[C@H](CSC)C[C@@H]2c3cccc4[nH]cc(c34)C[C@H]21 [PERGOLIDE]")
12.75
>>> observed_result("COc1nc(C)nc(Cl)c1N=C1NCCN1")
13.38
